Each recorded value in this set is attributed to patent US5795907A.

Recorded measurements of Ki, one per entry
target: CCKA (Cavia porcellus); construct: The pancreatata were homogenised in 40 ml ice-cold HEPES buffer using a polytron; from tissue; host or cells: pancreas membranes of male Dunkin Hartley guinea-pigs; assay: CCKA radioligand binding assay in guinea-pig pancreas membranes ([125I]-CCK8(S)); settings: PD134,308 present, 150 minutes at 21±3°, read-out: CCKA pKi (converted)
Sequence (Q63931 whole entry): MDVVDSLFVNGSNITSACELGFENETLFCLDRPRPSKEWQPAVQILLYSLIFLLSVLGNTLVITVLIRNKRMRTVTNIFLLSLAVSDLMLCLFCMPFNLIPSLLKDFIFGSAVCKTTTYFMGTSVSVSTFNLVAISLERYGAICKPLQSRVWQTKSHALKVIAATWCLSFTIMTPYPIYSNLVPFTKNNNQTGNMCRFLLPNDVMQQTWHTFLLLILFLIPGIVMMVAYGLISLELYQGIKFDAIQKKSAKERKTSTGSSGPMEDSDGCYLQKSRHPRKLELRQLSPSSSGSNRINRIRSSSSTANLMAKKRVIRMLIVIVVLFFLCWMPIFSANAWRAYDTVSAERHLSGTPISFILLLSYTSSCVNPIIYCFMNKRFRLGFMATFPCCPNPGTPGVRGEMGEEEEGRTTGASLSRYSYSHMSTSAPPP
Measured Endpoint: Ki (µM)

{"Compound": "O=C(NCC12CC3CC(CC(C3)C1)C2)c1cc2cc[nH]c2cc1C(=O)N[C@@H](Cc1ccccc1)C(=O)Nc1cccc(-c2nn[nH]n2)c1 [Example 101]", "Qualifier Sign": "=", "Readout Value": 0.251}
{"Compound": "Cn1ccc2cc(C(=O)NCC34CC5CC(CC(C5)C3)C4)c(C(=O)N[C@@H](Cc3ccccc3)C(=O)Nc3cc(C(=O)O)cc(C(=O)O)c3)cc21 [Example 37]", "Qualifier Sign": "=", "Readout Value": 2.51}
{"Compound": "O=C(O)c1cc(NC(=O)[C@H](Cc2ccccc2F)NC(=O)c2cc3cc[nH]c3cc2C(=O)NCC23CC4CC(CC(C4)C2)C3)cc(C(=O)O)c1 [Example 87]", "Qualifier Sign": "=", "Readout Value": 3.16}
{"Compound": "O=C(O)c1cc(NC(=O)[C@H](Cc2ccccc2)NC(=O)c2cc3[nH]cnc3cc2C(=O)NCC2CCCCCC2)cc(C(=O)O)c1 [Example 62]", "Qualifier Sign": "=", "Readout Value": 3.98}
{"Compound": "O=C(O)c1cc(NC(=O)[C@@H]2CCCN2C(=O)c2cc3[nH]cnc3cc2C(=O)NCC23CC4CC(CC(C4)C2)C3)cc(C(=O)O)c1 [Example 77]", "Qualifier Sign": ">", "Readout Value": 10}
{"Compound": "O=C(O)c1cc(NC(=O)[C@H](Cc2ccccc2)NC(=O)c2cc3cc[nH]c3cc2C(=O)NCC2CCC(O)CC2)cc(C(=O)O)c1 (single isomer, unassigned) [Example 109]", "Qualifier Sign": ">", "Readout Value": 10}

---

molecular target: CCKA (Cavia porcellus); construct: The pancreatata were homogenised in 40 ml ice-cold HEPES buffer using a polytron; from tissue; host or cells: pancreas membranes of male Dunkin Hartley guinea-pigs; test: CCKA radioligand binding assay in guinea-pig pancreas membranes ([125I]-CCK8(S)); details: PD134,308 present, 150 minutes at 21±3°
Measured Endpoint: CCKA pKi

{"Compound": "O=C(NCC12CC3CC(CC(C3)C1)C2)c1cc2[nH]ccc2cc1C(=O)N[C@@H](Cc1ccccc1)C(=O)Nc1cc(NS(=O)(=O)C(F)(F)F)cc(NS(=O)(=O)C(F)(F)F)c1 [Example 93]", "Measured Endpoint": "CCKA pKi", "Readout Value": 5.6}
{"Compound": "Nc1cccc2cc(C(=O)N[C@@H](Cc3ccccc3)C(=O)Nc3cc(C(=O)O)cc(C(=O)O)c3)c(C(=O)NCC34CC5CC(CC(C5)C3)C4)cc12 [Example 115]", "Measured Endpoint": "CCKA pKi", "Readout Value": 5.6}
{"Compound": "CN(O)C(=O)c1cc(NC(=O)[C@H](Cc2ccccc2)NC(=O)c2cc3cc[nH]c3cc2C(=O)NCC23CC4CC(CC(C4)C2)C3)cc(C(=O)N(C)O)c1 [Example 103]", "Measured Endpoint": "CCKA pKi", "Readout Value": 5.2}
{"Compound": "O=C(O)c1cc(NC(=O)[C@H](Cc2ccccc2Cl)NC(=O)c2cc3[nH]cnc3cc2C(=O)NCC23CC4CC(CC(C4)C2)C3)cc(C(=O)O)c1 [Example 135]", "Measured Endpoint": "CCKA pKi", "Readout Value": 5.1}
{"Compound": "O=C(O)c1cc(NC(=O)[C@H](Cc2ccccc2)NC(=O)c2cc3[nH]cnc3cc2C(=O)NCC23CC4CC(CC(C4)C2)C3)ccc1F [Example 75]", "Measured Endpoint": "CCKA pKi", "Readout Value": 6.1}
{"Compound": "NS(=O)(=O)c1cc(NC(=O)[C@H](Cc2ccccc2)NC(=O)c2cc3cc[nH]c3cc2C(=O)NCC23CC4CC(CC(C4)C2)C3)cc(S(N)(=O)=O)c1 [Example 96]", "Measured Endpoint": "CCKA pKi", "Readout Value": 5.7}
{"Compound": "Cn1cnc2cc(C(=O)N[C@@H](Cc3ccccc3)C(=O)Nc3cc(C(=O)O)cc(C(=O)O)c3)c(C(=O)NCC34CC5CC(CC(C5)C3)C4)cc21 [Example 74]", "Measured Endpoint": "CCKA pKi", "Readout Value": 5.3}
{"Compound": "O=C(O)c1ccc(C(=O)O)c(NC(=O)[C@H](Cc2ccccc2)NC(=O)c2cc3[nH]cnc3cc2C(=O)NCC23CC4CC(CC(C4)C2)C3)c1 [Example 78]", "Measured Endpoint": "CCKA pKi", "Readout Value": 5.3}
{"Compound": "C[C@H](NC(=O)c1cc2[nH]cnc2cc1C(=O)NCC1CCCCCC1)C(=O)Nc1cc(C(=O)O)cc(C(=O)O)c1 [Example 72]", "Measured Endpoint": "CCKA pKi", "Readout Value": 5.6}
{"Compound": "O=C(O)c1cc(NC(=O)[C@H](Cc2ccccc2)NC(=O)c2c(C(=O)NCC34CC5CC(CC(C5)C3)C4)ccc3[nH]cnc23)cc(C(=O)O)c1 [Example 113]", "Measured Endpoint": "CCKA pKi", "Readout Value": 5.2}
{"Compound": "O=C(O)CNC(=O)[C@@H](Cc1ccccc1)NC(=O)c1cc2cc[nH]c2cc1C(=O)NCC12CC3CC(CC(C3)C1)C2 [Example 91]", "Measured Endpoint": "CCKA pKi", "Readout Value": 5.3}
{"Compound": "O=C(O)c1cccc(NC(=O)[C@H](Cc2ccccc2)NC(=O)c2cc3cc[nH]c3cc2C(=O)NCC23CC4CC(CC(C4)C2)C3)c1 [Example 90]", "Measured Endpoint": "CCKA pKi", "Readout Value": 5.3}
{"Compound": "C[C@@H](NC(=O)C[C@@H]1CCCN1C(=O)c1cc2ccccc2cc1C(=O)NCC12CC3CC(CC(C3)C1)C2)C(=O)O [Example 16]", "Measured Endpoint": "CCKA pKi", "Readout Value": 5.5}
{"Compound": "O=C(O)c1cc(NC(=O)[C@H](Cc2ccccc2)NC(=O)c2cc3ccn(S(=O)(=O)c4ccccc4)c3cc2C(=O)NCC23CC4CC(CC(C4)C2)C3)cc(C(=O)O)c1 [Example 45]", "Measured Endpoint": "CCKA pKi", "Readout Value": 6.1}
{"Compound": "CC(C)(C)NS(=O)(=O)c1cc(NC(=O)[C@H](Cc2ccccc2)NC(=O)c2cc3cc[nH]c3cc2C(=O)NCC23CC4CC(CC(C4)C2)C3)cc(S(=O)(=O)NC(C)(C)C)c1 [Example 95]", "Measured Endpoint": "CCKA pKi", "Readout Value": 5.8}
{"Compound": "CN(C(=O)c1cc2[nH]cnc2cc1C(=O)NCC12CC3CC(CC(C3)C1)C2)[C@@H](Cc1ccccc1)C(=O)Nc1cc(C(=O)O)cc(C(=O)O)c1 [Example 86]", "Measured Endpoint": "CCKA pKi", "Readout Value": 5.0}

---

Reported Ki values are given for each entry in this list.
target: CCKB receptor (Mus musculus, UniProt P56481); construct: The cortex was dissected, weighed and homogenised in 40ml ice-cold buffer; tissue Charles River (supplier of the CD1 mice); host or cells: cerebral cortex membranes of male CD1 mice; test: CCKB receptor radioligand binding assay in mouse cortical membranes ([125I]-CCK8S); conditions: [125I]-CCK8S 200 pM, 150 min at 21±3°, read-out: CCKB pKi (converted)
Sequence (P56481 whole entry): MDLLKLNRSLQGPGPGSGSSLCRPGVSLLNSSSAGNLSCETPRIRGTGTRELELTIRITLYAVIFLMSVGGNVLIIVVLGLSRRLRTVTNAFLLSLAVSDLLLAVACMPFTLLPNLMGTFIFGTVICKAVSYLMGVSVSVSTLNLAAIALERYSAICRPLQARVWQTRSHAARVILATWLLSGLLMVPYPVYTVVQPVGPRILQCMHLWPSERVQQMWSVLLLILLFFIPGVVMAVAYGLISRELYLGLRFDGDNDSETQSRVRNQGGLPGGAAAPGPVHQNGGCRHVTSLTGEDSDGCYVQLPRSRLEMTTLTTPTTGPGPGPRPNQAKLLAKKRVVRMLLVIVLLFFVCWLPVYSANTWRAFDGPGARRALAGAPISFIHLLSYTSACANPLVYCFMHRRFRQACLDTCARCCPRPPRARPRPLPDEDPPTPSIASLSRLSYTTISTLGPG

{"Sample Smiles": "O=Cc1cc(C=O)cc(NC(=O)[C@H](Cc2ccccc2)NC(=O)c2cc3[nH]cnc3cc2C(=O)NCC23CC4CC(CC(C4)C2)C3)c1", "Ki": "631 nM"}
{"Sample Smiles": "O=C(O)c1cc(NC(=O)[C@H](Cc2ccccc2F)NC(=O)c2cc3cc[nH]c3cc2C(=O)NCC23CC4CC(CC(C4)C2)C3)cc(C(=O)O)c1", "Ki": "0.794 nM"}
{"Sample Smiles": "COC(=O)c1cc(NC(=O)[C@H](Cc2ccccc2)NC(=O)c2cc3[nH]cnc3cc2C(=O)NCC23CC4CC(CC(C4)C2)C3)cc(C(=O)OC)c1", "Ki": "794 nM"}
{"Sample Smiles": "CC(C)(C)C(=O)OCOC(=O)c1cc(NC(=O)[C@H](Cc2ccccc2)NC(=O)c2cc3cc[nH]c3cc2C(=O)NCC23CC4CC(CC(C4)C2)C3)cc(C(=O)OCOC(=O)C(C)(C)C)c1", "Ki": "2510 nM"}
{"Sample Smiles": "CC(=O)NS(=O)(=O)c1cccc(NC(=O)[C@H](Cc2ccccc2)NC(=O)c2cc3[nH]cnc3cc2C(=O)NCC23CC4CC(CC(C4)C2)C3)c1", "Ki": "20 nM"}
